# Target: recombinant human PAD2 (human, UniProt Q9Y2J8 1-665)
# Sequence (Q9Y2J8 whole entry): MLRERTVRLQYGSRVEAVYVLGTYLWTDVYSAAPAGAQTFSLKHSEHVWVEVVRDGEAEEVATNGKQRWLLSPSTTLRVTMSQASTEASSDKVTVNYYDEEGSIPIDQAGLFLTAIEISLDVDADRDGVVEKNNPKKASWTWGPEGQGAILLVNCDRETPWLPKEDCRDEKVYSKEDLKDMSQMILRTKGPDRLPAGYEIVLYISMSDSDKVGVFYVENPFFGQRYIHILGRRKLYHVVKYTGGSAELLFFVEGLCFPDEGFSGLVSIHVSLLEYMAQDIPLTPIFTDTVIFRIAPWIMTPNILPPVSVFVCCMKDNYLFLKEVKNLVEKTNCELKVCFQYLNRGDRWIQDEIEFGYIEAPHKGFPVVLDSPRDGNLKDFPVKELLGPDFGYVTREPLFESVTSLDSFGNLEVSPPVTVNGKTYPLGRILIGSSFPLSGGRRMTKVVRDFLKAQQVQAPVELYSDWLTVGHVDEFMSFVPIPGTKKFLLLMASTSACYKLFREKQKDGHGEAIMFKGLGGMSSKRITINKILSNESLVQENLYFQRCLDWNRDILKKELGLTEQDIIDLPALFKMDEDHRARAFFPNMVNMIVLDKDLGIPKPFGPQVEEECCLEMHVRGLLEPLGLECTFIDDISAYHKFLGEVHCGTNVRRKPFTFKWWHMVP
# Experiment Description: cell-based or functional assay
Square brackets hold non-standard residues; d marks the D form. Orn(fluoroacetimidoyl) = N=C(CF)NCCC[C@H](N)C(=O)O
Parameter: conversion of 0708-30 by PAD2, 50 µM inhibitor (%)
Numbers only, in %.

## Task Give the measured conversion of 0708-30 by PAD2, 50 µM inhibitor for Ac-FFDSHKWH[Orn(fluoroacetimidoyl)]DFFYSD-NH2 (SMILES CC(=O)N[C@@H](Cc1ccccc1)C(=O)N[C@@H](Cc1ccccc1)C(=O)N[C@@H](CC(=O)O)C(=O)N[C@@H](CO)C(=O)N[C@@H](Cc1c[nH]cn1)C(=O)N[C@@H](CCCCN)C(=O)N[C@@H](Cc1c[nH]c2ccccc12)C(=O)N[C@@H](Cc1c[nH]cn1)C(=O)N[C@@H](CCCNC(=N)CF)C(=O)N[C@@H](CC(=O)O)C(=O)N[C@@H](Cc1ccccc1)C(=O)N[C@@H](Cc1ccccc1)C(=O)N[C@@H](Cc1ccc(O)cc1)C(=O)N[C@@H](CO)C(=O)N[C@@H](CC(=O)O)C(N)=O) [0741-02FA]
## Result 17
